Assay: Test 1 stability data under 25° C. for 6 months (liquid chromatography)
Type: physicochemical
Details: 25° C., 0 month; in % (unit assumed)
Below, each entry is listed with its recorded Major peak.
Would you mind answering with just the numeric figure?

Example results:
compound	observedMeasurement
CCCCCCOC(=O)/N=C(/N)c1ccc(NCc2nc3cc(C(=O)N(CCC(=O)OCC)c4ccccn4)ccc3n2C)cc1.CS(=O)(=O)O [Semihydrate crystal form]	99.847
CCCCCCOC(=O)/N=C(/N)c1ccc(NCc2nc3cc(C(=O)N(CCC(=O)OCC)c4ccccn4)ccc3n2C)cc1.CS(=O)(=O)O [Crystal form M]	99.711
CCCCCCOC(=O)/N=C(/N)c1ccc(NCc2nc3cc(C(=O)N(CCC(=O)OCC)c4ccccn4)ccc3n2C)cc1.CS(=O)(=O)O [Crystal form II]	99.646
CCCCCCOC(=O)/N=C(/N)c1ccc(NCc2nc3cc(C(=O)N(CCC(=O)OCC)c4ccccn4)ccc3n2C)cc1.CS(=O)(=O)O [Crystal form N]	99.701

API: the following record is the query input.
Task: Tell me Major peak reported for CCCCCCOC(=O)/N=C(/N)c1ccc(NCc2nc3cc(C(=O)N(CCC(=O)OCC)c4ccccn4)ccc3n2C)cc1.CS(=O)(=O)O [Crystal form I]
Output: 99.690

* * *

Assay: Test 3 stability data under −20° C. for 6 months (liquid chromatography)
Type: physicochemical
Settings: 1 month, in % (unit assumed)
Below, each entry is listed with its recorded Major peak.
Would you mind answering with just the numeric figure?

compound	Major peak
CCCCCCOC(=O)/N=C(/N)c1ccc(NCc2nc3cc(C(=O)N(CCC(=O)OCC)c4ccccn4)ccc3n2C)cc1.CS(=O)(=O)O [Crystal form II]	99.630
CCCCCCOC(=O)/N=C(/N)c1ccc(NCc2nc3cc(C(=O)N(CCC(=O)OCC)c4ccccn4)ccc3n2C)cc1.CS(=O)(=O)O [Crystal form N]	99.723
CCCCCCOC(=O)/N=C(/N)c1ccc(NCc2nc3cc(C(=O)N(CCC(=O)OCC)c4ccccn4)ccc3n2C)cc1.CS(=O)(=O)O [Crystal form M]	99.722

Task: Tell me Major peak reported for CCCCCCOC(=O)/N=C(/N)c1ccc(NCc2nc3cc(C(=O)N(CCC(=O)OCC)c4ccccn4)ccc3n2C)cc1.CS(=O)(=O)O [Crystal form I]
Output: 99.693

Task: Tell me Major peak reported for CCCCCCOC(=O)/N=C(/N)c1ccc(NCc2nc3cc(C(=O)N(CCC(=O)OCC)c4ccccn4)ccc3n2C)cc1.CS(=O)(=O)O [Semihydrate crystal form]
Output: 99.834

* * *

Test: Test 2 stability data under 5° C. for 6 months (liquid chromatography)
Format: physicochemical
Details: 5° C., 3 months; in % (unit assumed)
endpointLabel: Major peak
Would you mind answering with just the numeric figure?

Example results:
molecule	endpointLabel	observedMeasurement
CCCCCCOC(=O)/N=C(/N)c1ccc(NCc2nc3cc(C(=O)N(CCC(=O)OCC)c4ccccn4)ccc3n2C)cc1.CS(=O)(=O)O [Crystal form M]	Major peak	99.651
CCCCCCOC(=O)/N=C(/N)c1ccc(NCc2nc3cc(C(=O)N(CCC(=O)OCC)c4ccccn4)ccc3n2C)cc1.CS(=O)(=O)O [Crystal form I]	Major peak	99.652
CCCCCCOC(=O)/N=C(/N)c1ccc(NCc2nc3cc(C(=O)N(CCC(=O)OCC)c4ccccn4)ccc3n2C)cc1.CS(=O)(=O)O [Semihydrate crystal form]	Major peak	99.826
CCCCCCOC(=O)/N=C(/N)c1ccc(NCc2nc3cc(C(=O)N(CCC(=O)OCC)c4ccccn4)ccc3n2C)cc1.CS(=O)(=O)O [Crystal form N]	Major peak	99.652

API: the following record is the query input.
Task: Tell me Major peak reported for CCCCCCOC(=O)/N=C(/N)c1ccc(NCc2nc3cc(C(=O)N(CCC(=O)OCC)c4ccccn4)ccc3n2C)cc1.CS(=O)(=O)O [Crystal form II]
Output: 99.640
